System: 422866-222-R5-J1-PDC complex spheroid viability;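 further: spheroids exposed to compounds for one week before readout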
experimental.protocol: Anticancer human tumor 422866-222-R5-J1-PDC patient-derived pancreatic adenocarcinoma cell line growth inhibition [POLQ]
measurement.parameters: curve of first compound; second compound 1 µM
Record form. Attribute: IC50. Fill in for each entry.

Would you mind telling me what IC50 value was observed for CCc1cc2c(N3CCc4c(cc(Cn5ccnc5)cc4-c4cn(C)nc4C(F)(F)F)C3=O)ccnc2c(OC)n1 + COC1C(OC(N)=O)C(O)C(Oc2ccc3c(O)c(NC(=O)c4ccc(O)c(CC=C(C)C)c4)c(=O)oc3c2C)OC1(C)C ? > 10 µM

Would you mind telling me what IC50 value was observed for CC[C@@]1(O)C(=O)OCc2c1cc1n(c2=O)Cc2cc3c(CN(C)C)c(O)ccc3nc2-1 + Cc1cccc(N(C)C(=O)C2C(O)CCN2c2nc(C)cc(C(F)(F)F)c2C#N)c1 ? 0.047 µM

Would you mind telling me what IC50 value was observed for CC(C)n1c(=O)n(C)c2cnc3cc(F)c(-c4ccc(OCCCN5CCCCC5)nc4)cc3c21 + Cc1cccc(N(C)C(=O)C2C(O)CCN2c2nc(C)cc(C(F)(F)F)c2C#N)c1 ? > 10 µM

Would you mind telling me what IC50 value was observed for COc1ccc([C@@H](O)c2cc(-c3ncnc4cc(N5CCOCC5)ccc34)c(F)cc2Cl)nn1 + COC1C(OC(N)=O)C(O)C(Oc2ccc3c(O)c(NC(=O)c4ccc(O)c(CC=C(C)C)c4)c(=O)oc3c2C)OC1(C)C ? 2.91 µM

Would you mind telling me what IC50 value was observed for O=C(c1cc(Cc2n[nH]c(=O)c3ccccc23)ccc1F)N1CCN(C(=O)C2CC2)CC1 + Nc1ccc(C#CCN(C(=O)Cc2ncc(C(F)(F)F)cc2C(F)(F)F)c2ccc(F)cc2)nn1 ? > 10 µM

Would you mind telling me what IC50 value was observed for Cn1ncnc1[C@H]1c2n[nH]c(=O)c3cc(F)cc(c23)N[C@@H]1c1ccc(F)cc1 + Nc1ccc(C#CCN(C(=O)Cc2ncc(C(F)(F)F)cc2C(F)(F)F)c2ccc(F)cc2)nn1 ? > 0.1 µM

Would you mind telling me what IC50 value was observed for COc1cc(C2c3cc4c(cc3C(OC3OC5COC(C)OC5C(O)C3O)C3COC(=O)C23)OCO4)cc(OC)c1O (stereo unspecified) + COC1C(OC(N)=O)C(O)C(Oc2ccc3c(O)c(NC(=O)c4ccc(O)c(CC=C(C)C)c4)c(=O)oc3c2C)OC1(C)C ? 1.07 µM

Would you mind telling me what IC50 value was observed for Nc1ccn(C2OC(CO)C(O)C2(F)F)c(=O)n1 (stereo unspecified) + Nc1ccc(C#CCN(C(=O)Cc2ncc(C(F)(F)F)cc2C(F)(F)F)c2ccc(F)cc2)nn1 ? 0.0715 µM

Would you mind telling me what IC50 value was observed for CCc1cc2c(N3CCc4c(cc(Cn5ccnc5)cc4-c4cn(C)nc4C(F)(F)F)C3=O)ccnc2c(OC)n1 + Cc1cccc(N(C)C(=O)C2C(O)CCN2c2nc(C)cc(C(F)(F)F)c2C#N)c1 ? > 10 µM

Would you mind telling me what IC50 value was observed for CC[C@@]1(O)C(=O)OCc2c1cc1n(c2=O)Cc2cc3c(CN(C)C)c(O)ccc3nc2-1 + Nc1ccc(C#CCN(C(=O)Cc2ncc(C(F)(F)F)cc2C(F)(F)F)c2ccc(F)cc2)nn1 ? 0.0107 µM

Would you mind telling me what IC50 value was observed for CCc1c2c(nc3ccc(O)cc13)-c1cc3c(c(=O)n1C2)COC(=O)[C@]3(O)CC + Nc1ccc(C#CCN(C(=O)Cc2ncc(C(F)(F)F)cc2C(F)(F)F)c2ccc(F)cc2)nn1 ? < 0.00316 µM

Would you mind telling me what IC50 value was observed for COc1cc2cc(C(=O)CCC(=O)O)sc2cc1OC + Cc1cccc(N(C)C(=O)C2C(O)CCN2c2nc(C)cc(C(F)(F)F)c2C#N)c1 ? > 10 µM

Would you mind telling me what IC50 value was observed for O=C(Nc1ccc(O)c(NS(=O)(=O)c2ccc(F)cc2)c1)c1ccc(-c2ccccc2)cc1 + Cc1cccc(N(C)C(=O)C2C(O)CCN2c2nc(C)cc(C(F)(F)F)c2C#N)c1 ? > 10 µM

Would you mind telling me what IC50 value was observed for CNCc1ccc(-c2[nH]c3cc(F)cc4c3c2CCNC4=O)cc1 + Cc1cccc(N(C)C(=O)C2C(O)CCN2c2nc(C)cc(C(F)(F)F)c2C#N)c1 ? > 10 µM

Would you mind telling me what IC50 value was observed for CCc1cc2c(N3CCc4c(cc(Cn5ccnc5)cc4-c4cn(C)nc4C(F)(F)F)C3=O)cc(C)nc2c(OC)n1 + Cc1cccc(N(C)C(=O)C2C(O)CCN2c2nc(C)cc(C(F)(F)F)c2C#N)c1 ? > 10 µM

Would you mind telling me what IC50 value was observed for COc1cccc2c1C(=O)c1c(O)c3c(c(O)c1C2=O)CC(O)(C(=O)CO)CC3OC1CC(N)C(O)C(C)O1 (stereo unspecified) + Nc1ccc(C#CCN(C(=O)Cc2ncc(C(F)(F)F)cc2C(F)(F)F)c2ccc(F)cc2)nn1 ? 0.081 µM

Would you mind telling me what IC50 value was observed for CC1COCCN1c1cc(C2(S(C)(=N)=O)CC2)nc(-c2ccnc3[nH]ccc23)n1 (stereo unspecified) + Nc1ccc(C#CCN(C(=O)Cc2ncc(C(F)(F)F)cc2C(F)(F)F)c2ccc(F)cc2)nn1 ? 2.12 µM

Would you mind telling me what IC50 value was observed for COc1cc2cc(C(=O)CCC(=O)O)sc2cc1OC + COC1C(OC(N)=O)C(O)C(Oc2ccc3c(O)c(NC(=O)c4ccc(O)c(CC=C(C)C)c4)c(=O)oc3c2C)OC1(C)C ? > 10 µM

Would you mind telling me what IC50 value was observed for COc1cccc(OCCCN)c1-c1cc(Nc2cnc(C#N)cn2)n[nH]1 + Cc1cccc(N(C)C(=O)C2C(O)CCN2c2nc(C)cc(C(F)(F)F)c2C#N)c1 ? 0.00692 µM

Would you mind telling me what IC50 value was observed for CC(C)n1c(=O)n(C)c2cnc3cc(F)c(-c4ccc(OCCCN5CCCCC5)nc4)cc3c21 + COC1C(OC(N)=O)C(O)C(Oc2ccc3c(O)c(NC(=O)c4ccc(O)c(CC=C(C)C)c4)c(=O)oc3c2C)OC1(C)C ? < 0.0316 µM

Would you mind telling me what IC50 value was observed for CC1COCCN1c1cc(C2(O)CC3CCC(C2)O3)c2cnn(-c3ccn[nH]3)c2n1 (stereo unspecified) + Nc1ccc(C#CCN(C(=O)Cc2ncc(C(F)(F)F)cc2C(F)(F)F)c2ccc(F)cc2)nn1 ? > 10 µM

From: PubChem BioAssay AID1963844
